# TARGET OF ASSAY: T1, human IGFBP-1 (human, UniProt P08833 26-259)
# T1 sequence (looked up): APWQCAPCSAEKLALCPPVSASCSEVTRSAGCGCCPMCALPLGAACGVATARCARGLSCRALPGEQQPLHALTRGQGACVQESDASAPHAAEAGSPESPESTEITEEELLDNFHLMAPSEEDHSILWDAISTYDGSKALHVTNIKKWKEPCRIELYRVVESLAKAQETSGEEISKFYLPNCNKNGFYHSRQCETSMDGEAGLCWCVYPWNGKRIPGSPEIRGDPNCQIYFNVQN
# PROTOCOL TEXT: BIAcore inhibition assay
Positions of bridges follow the written chain, without caps; N, C: chain ends. No end group written: not given here.
Please respond with reported fold potency reduction, IC50 (BP1-01)/IC50 (mut) for every item in the list.

Would you kindly share the measured fold potency reduction, IC50 (BP1-01)/IC50 (mut) for Ac-LEWLAEKYEG (linker 2-9 via 1,5‑diaminopentane) [(i+7)B] ?
> 360

Try Ac-RAGPLEWLAEKYFE (linker 6-14 via 1,5‑diaminopentane) [(i+8)C] next.
5.9

Try Ac-PLEWLAEKYEG (linker 3-10 via 1,5‑diaminopentane) [(i+7)C] next.
20
